Test system: EPHHL
Assay: Pre-emergence biological efficacy
Format: in vivo
Conditions: Euphorbia heterophylla, 312 h, evaluated after 13 days, read-out: damage to plant (100=total damage to plant; 0=no damage to plant)
Experimental: Seeds of weeds and/or crops were sown in standard soil in pots. […] The test plants were then grown under controlled conditions in the glasshouse (at 24/18° C., day/night; 15 hours light; 50% humidity) and watered twice daily. After 13 days the test was evaluated (100=total damage to plant; 0=no damage to plant).

{"compound": "CCOC(=O)C1(C)CC(c2cc(-c3cnc4ccc(C(F)(F)F)cc4n3)c(F)cc2Cl)=NO1 (stereo not shown) [Compound 1-763]", "pest or weed control at 250 g/ha (%)": 0}
{"compound": "CCOC(=O)C1(C)CC(c2cc(-c3ncc(Cl)cc3Cl)c(F)cc2Cl)=NO1 (stereo not shown) [Compound 1-115]", "pest or weed control at 250 g/ha (%)": 100}
{"compound": "CCOC(=O)C1(C)CC(c2cc(-c3ccnc(C(F)(F)F)c3)c(F)cc2Cl)=NO1 (stereo not shown) [Compound 1-499]", "pest or weed control at 250 g/ha (%)": 0}
{"compound": "CCOC(=O)C1(C)CC(c2cc(-c3cncc(OC)c3)c(F)cc2Cl)=NO1 (stereo not shown) [Compound 1-379]", "pest or weed control at 250 g/ha (%)": 0}

###

test system: ECHCG; experiment: Post-emergence biological efficacy; format: in vivo; conditions: Echinochloa crus-galli, 312 h, evaluated after 13 days, read-out: damage to plant (100=total damage to plant; 0=no damage to plant)
Threshold check on pest or weed control at 250 g/ha: strictly below 50% is Condition met; on or above 50% is Condition not met.

{"compound": "CCOC(=O)C1(C)CC(c2cc(-c3cnc(C)cn3)c(F)cc2Cl)=NO1 (centres unmarked) [Compound 1-739]", "assigned class": "Condition met"}
{"compound": "CCOC(=O)C1(C)CC(c2cc(-c3ncc(Cl)cc3C(F)(F)F)c(F)cc2Cl)=NO1 (centres unmarked) [Compound 1-343]", "assigned class": "Condition not met"}
{"compound": "CCOC(=O)C1(C)CC(c2cc(-c3ccncc3)c(F)cc2Cl)=NO1 (centres unmarked) [Compound 1-487]", "assigned class": "Condition met"}
{"compound": "CCOC(=O)C1(C)CC(c2cc(-c3cncc(Cl)c3)c(F)cc2Cl)=NO1 (centres unmarked) [Compound 1-271]", "assigned class": "Condition met"}
{"compound": "CCOC(=O)C1(C)CC(c2cc(-c3cnc(Cl)c(Cl)c3)c(F)cc2Cl)=NO1 (centres unmarked) [Compound 1-427]", "assigned class": "Condition not met"}
{"compound": "CCOC(=O)C1(C)CC(c2cc(-c3ncc(C(F)(F)F)cc3Cl)ccc2Cl)=NO1 (centres unmarked) [Compound 1-99]", "assigned class": "Condition not met"}
{"compound": "CCOC(=O)C1(C)CC(c2cc(-c3ccc(C)nc3)c(F)cc2Cl)=NO1 (centres unmarked) [Compound 1-283]", "assigned class": "Condition met"}

###

System: IPOHE
Assay: Post-emergence biological efficacy
Format: in vivo
Conditions: Ipomoea hederacea, 312 h, evaluated after 13 days, read-out: damage to plant (100=total damage to plant; 0=no damage to plant)
Protocol: Seeds of weeds and/or crops were sown in standard soil in pots. […] The test plants were then grown under controlled conditions in the glasshouse (at 24/18° C., day/night; 15 hours light; 50% humidity)and watered twice daily. After 13 days the test was evaluated (100=total damage to plant; 0=no damage to plant).
property label: pest or weed control at 250 g/ha (%)

{"compound": "CCOC(=O)C1(C)CC(c2cc(-c3cc(C)cc(F)n3)c(F)cc2Cl)=NO1 (centres unmarked) [Compound 1-367]", "property label": "pest or weed control at 250 g/ha", "measured result": 40}
{"compound": "CCOC(=O)C1(C)CC(c2cc(-c3nccnc3C)c(F)cc2Cl)=NO1 (centres unmarked) [Compound 1-775]", "property label": "pest or weed control at 250 g/ha", "measured result": 30}
{"compound": "CCOC(=O)C1(C)CC(c2cc(-c3cnc4c(c3)OC(F)(F)O4)c(F)cc2Cl)=NO1 (centres unmarked) [Compound 1-451]", "property label": "pest or weed control at 250 g/ha", "measured result": 100}
{"compound": "CCOC(=O)C1(C)CC(c2cc(-c3ncc([N+](=O)[O-])cc3Cl)c(F)cc2Cl)=NO1 (centres unmarked) [Compound 1-355]", "property label": "pest or weed control at 250 g/ha", "measured result": 70}
{"compound": "CCOC(=O)C1(C)CC(c2cc(-c3ccncc3)c(F)cc2Cl)=NO1 (centres unmarked) [Compound 1-487]", "property label": "pest or weed control at 250 g/ha", "measured result": 0}
{"compound": "CCOC(=O)C1(C)CC(c2cc(-c3ccc(OC)nn3)c(F)cc2Cl)=NO1 (centres unmarked) [Compound 1-703]", "property label": "pest or weed control at 250 g/ha", "measured result": 60}
{"compound": "CCOC(=O)C1(C)CC(c2cc(-c3ncc(C(C)(F)F)cc3Cl)c(F)cc2Cl)=NO1 (centres unmarked) [Compound 1-595]", "property label": "pest or weed control at 250 g/ha", "measured result": 100}
{"compound": "CCOC(=O)C1(C)CC(c2cc(-c3ccc(Cl)nn3)c(F)cc2Cl)=NO1 (centres unmarked) [Compound 1-679]", "property label": "pest or weed control at 250 g/ha", "measured result": 40}

###

test system: IPOHE; experiment: Post-emergence biological efficacy; format: in vivo; conditions: Ipomoea hederacea, 312 h, evaluated after 13 days, read-out: damage to plant (100=total damage to plant; 0=no damage to plant)
property label: pest or weed control at 250 g/ha

{"molecule": "CCOC(=O)C1(C)CC(c2cc(-c3cnc(C)cn3)c(F)cc2Cl)=NO1 (stereo not shown) [Compound 1-739]", "test system": "IPOHE", "measured result": "50%"}
{"molecule": "CCOC(=O)C1(C)CC(c2cc(-c3ccnc(C(F)(F)F)c3)c(F)cc2Cl)=NO1 (stereo not shown) [Compound 1-499]", "test system": "IPOHE", "measured result": "70%"}
{"molecule": "CCOC(=O)C1(C)CC(c2cc(-c3cc(C(F)(F)F)cc(Cl)n3)c(F)cc2Cl)=NO1 (stereo not shown) [Compound 1-67]", "test system": "IPOHE", "measured result": "30%"}
{"molecule": "CCOC(=O)C1(C)CC(c2cc(-c3cncc(C(F)(F)F)n3)c(F)cc2Cl)=NO1 (stereo not shown) [Compound 1-727]", "test system": "IPOHE", "measured result": "100%"}

###

Tested on: EPHHL
Assay: Pre-emergence biological efficacy
Assay type: in vivo
Settings: Euphorbia heterophylla, 312 h, evaluated after 13 days, read-out: damage to plant (100=total damage to plant; 0=no damage to plant)
Description: Seeds of weeds and/or crops were sown in standard soil in pots. […] The test plants were then grown under controlled conditions in the glasshouse (at 24/18° C., day/night; 15 hours light; 50% humidity) and watered twice daily. After 13 days the test was evaluated (100=total damage to plant; 0=no damage to plant).

{"compound": "CCOC(=O)C1(C)CC(c2cc(-c3ccccn3)c(F)cc2Cl)=NO1 (stereo not shown) [Compound 1-139]", "pest or weed control at 250 g/ha": "0%"}
{"compound": "CCOC(=O)C1(C)CC(c2cc(-c3cc(C)cnc3F)c(F)cc2Cl)=NO1 (stereo not shown) [Compound 1-223]", "pest or weed control at 250 g/ha": "0%"}
{"compound": "CCOC(=O)C1(C)CC(c2cc(-c3nccnc3C(F)(F)F)c(F)cc2Cl)=NO1 (stereo not shown) [Compound 1-823]", "pest or weed control at 250 g/ha": "40%"}
{"compound": "CCOC(=O)C1(C)CC(c2cc(-c3cc(Cl)cnc3F)c(F)cc2Cl)=NO1 (stereo not shown) [Compound 1-199]", "pest or weed control at 250 g/ha": "30%"}

###

test system: LOLPE; assay: Post-emergence biological efficacy; type: in vivo; details: Lolium perenne, 312 h, evaluated after 13 days, read-out: damage to plant (100=total damage to plant; 0=no damage to plant)
Entries and their pest or weed control at 250 g/ha

{"molecule": "CCOC(=O)C1(C)CC(c2cc(-c3nccnc3C(F)(F)F)c(F)cc2Cl)=NO1 (centres unmarked)", "unit": "%", "pest or weed control at 250 g/ha": 10}
{"molecule": "CCOC(=O)C1(C)CC(c2cc(-c3ncc(C(F)F)cc3Cl)c(F)cc2Cl)=NO1 (centres unmarked)", "unit": "%", "pest or weed control at 250 g/ha": 100}
{"molecule": "CCOC(=O)C1(C)CC(c2cc(-c3cncc(OC)c3)c(F)cc2Cl)=NO1 (centres unmarked)", "unit": "%", "pest or weed control at 250 g/ha": 10}
{"molecule": "CCOC(=O)C1(C)CC(c2cc(-c3c(Cl)cc(C(F)(F)F)c[n+]3[O-])c(F)cc2Cl)=NO1 (centres unmarked)", "unit": "%", "pest or weed control at 250 g/ha": 100}
{"molecule": "CCOC(=O)C1(C)CC(c2cc(-c3ncc(C(F)(F)F)cc3Cl)ccc2Cl)=NO1 (centres unmarked)", "unit": "%", "pest or weed control at 250 g/ha": 100}
{"molecule": "CCOC(=O)C1(C)CC(c2cc(-c3ncc(C(F)(F)F)cc3F)c(F)cc2Cl)=NO1 (centres unmarked)", "unit": "%", "pest or weed control at 250 g/ha": 100}
{"molecule": "CCOC(=O)C1(C)CC(c2cc(-c3nc(C)cnc3C)c(F)cc2Cl)=NO1 (centres unmarked)", "unit": "%", "pest or weed control at 250 g/ha": 20}
{"molecule": "CCOC(=O)C1(C)CC(c2cc(-c3ccc(OC)nn3)c(F)cc2Cl)=NO1 (centres unmarked)", "unit": "%", "pest or weed control at 250 g/ha": 70}
{"molecule": "CCOC(=O)C1(C)CC(c2cc(-c3cc(F)cnc3Cl)c(F)cc2Cl)=NO1 (centres unmarked)", "unit": "%", "pest or weed control at 250 g/ha": 10}
{"molecule": "CCOC(=O)C1(C)CC(c2cc(-c3ccccc3Cl)c(F)cc2Cl)=NO1 (centres unmarked)", "unit": "%", "pest or weed control at 250 g/ha": 10}
{"molecule": "CCOC(=O)C1(C)CC(c2cc(-c3cncc(C(F)(F)F)n3)c(F)cc2Cl)=NO1 (centres unmarked)", "unit": "%", "pest or weed control at 250 g/ha": 20}
{"molecule": "CCOC(=O)C1(C)CC(c2cc(-c3cc(C(F)(F)F)ccn3)c(F)cc2Cl)=NO1 (centres unmarked)", "unit": "%", "pest or weed control at 250 g/ha": 10}
{"molecule": "CCOC(=O)C1(C)CC(c2cc(-c3ncccc3Cl)c(F)cc2Cl)=NO1 (centres unmarked)", "unit": "%", "pest or weed control at 250 g/ha": 10}
{"molecule": "CCOC(=O)C1(C)CC(c2cc(-c3cncc(Cl)c3)c(F)cc2Cl)=NO1 (centres unmarked)", "unit": "%", "pest or weed control at 250 g/ha": 0}
{"molecule": "CCOC(=O)C1(C)CC(c2cc(-c3ncc(C(F)(F)F)cc3Cl)c(F)cc2Cl)=NO1 (centres unmarked)", "unit": "%", "pest or weed control at 250 g/ha": 100}
{"molecule": "CCOC(=O)C1(C)CC(c2cc(-c3cc(Cl)cnc3F)c(F)cc2Cl)=NO1 (centres unmarked)", "unit": "%", "pest or weed control at 250 g/ha": 40}
{"molecule": "CCOC(=O)C1(C)CC(c2cc(-c3ccnc(F)c3)c(F)cc2Cl)=NO1 (centres unmarked)", "unit": "%", "pest or weed control at 250 g/ha": 0}
{"molecule": "CCOC(=O)C1(C)CC(c2cc(-c3ccncc3)c(F)cc2Cl)=NO1 (centres unmarked)", "unit": "%", "pest or weed control at 250 g/ha": 0}
{"molecule": "CCOC(=O)C1(C)CC(c2cc(-c3cc(C(F)(F)F)cnc3F)c(F)cc2Cl)=NO1 (centres unmarked)", "unit": "%", "pest or weed control at 250 g/ha": 60}
{"molecule": "CCOC(=O)C1(C)CC(c2cc(-c3cnc4c(c3)OC(F)(F)O4)ccc2C#N)=NO1 (centres unmarked)", "unit": "%", "pest or weed control at 250 g/ha": 20}
{"molecule": "CCOC(=O)C1(C)CC(c2cc(-c3ncc(C#N)cc3Cl)c(F)cc2Cl)=NO1 (centres unmarked)", "unit": "%", "pest or weed control at 250 g/ha": 70}
{"molecule": "CCOC(=O)C1(C)CC(c2cc(-c3cnc(F)c(F)c3)c(F)cc2Cl)=NO1 (centres unmarked)", "unit": "%", "pest or weed control at 250 g/ha": 10}
{"molecule": "CCOC(=O)C1(C)CC(c2cc(-c3ccc(C(F)(F)F)nc3Cl)c(F)cc2Cl)=NO1 (centres unmarked)", "unit": "%", "pest or weed control at 250 g/ha": 80}
{"molecule": "CCOC(=O)C1(C)CC(c2cc(-c3ncc(C(C)=O)cc3Cl)c(F)cc2Cl)=NO1 (centres unmarked)", "unit": "%", "pest or weed control at 250 g/ha": 0}
{"molecule": "CCOC(=O)C1(C)CC(c2cc(-c3cnc(C)cn3)c(F)cc2Cl)=NO1 (centres unmarked)", "unit": "%", "pest or weed control at 250 g/ha": 0}
{"molecule": "CCOC(=O)C1(C)CC(c2cc(-c3ccc(Cl)nn3)c(F)cc2Cl)=NO1 (centres unmarked)", "unit": "%", "pest or weed control at 250 g/ha": 10}
{"molecule": "CCOC(=O)C1(C)CC(c2cc(-c3ncc(Cl)cc3C(F)(F)F)c(F)cc2Cl)=NO1 (centres unmarked)", "unit": "%", "pest or weed control at 250 g/ha": 60}
{"molecule": "CCOC(=O)C1(C)CC(c2cc(-c3ncc(S(C)(=O)=O)cc3Cl)c(F)cc2Cl)=NO1 (centres unmarked)", "unit": "%", "pest or weed control at 250 g/ha": 100}
{"molecule": "CCOC(=O)C1(C)CC(c2cc(-c3ncc(C)cc3Cl)c(F)cc2Cl)=NO1 (centres unmarked)", "unit": "%", "pest or weed control at 250 g/ha": 90}
{"molecule": "CCOC(=O)C1(C)CC(c2cc(-c3cc(Cl)nc(OC)c3)c(F)cc2Cl)=NO1 (centres unmarked)", "unit": "%", "pest or weed control at 250 g/ha": 0}
{"molecule": "CCOC(=O)C1(C)CC(c2cc(-c3cnccc3OC)c(F)cc2Cl)=NO1 (centres unmarked)", "unit": "%", "pest or weed control at 250 g/ha": 0}
{"molecule": "CCOC(=O)C1(C)CC(c2cc(-c3ccc(C(F)(F)F)cn3)c(F)cc2Cl)=NO1 (centres unmarked)", "unit": "%", "pest or weed control at 250 g/ha": 100}

Data provenance is patent US20240124432A1.
